Test: Potency index, ratio of test compound EC50 to prodrug EC50 for induction of INF-gamma production in healthy human PBMC incubated for 16 hrs
Assay type: functional
Would you please tag the item Criterion met when its Ratio EC50 is 8 or above, and Criterion not met when it is below?

smiles	groupLabel
CCC(CC)C(=O)OCO[P@]1(=O)OC[C@H]2O[C@@H](n3cnc4c(N)ncnc43)[C@H](F)[C@@H]2O[P@](=O)(OCOC(=O)C(CC)CC)OC[C@H]2O[C@@H](n3cnc4c(N)ncnc43)[C@H](F)[C@@H]2O1	Criterion met
CC(C)OC(=O)OCO[P@@]1(=O)OC[C@H]2O[C@@H](n3cnc4c(N)ncnc43)[C@H](F)[C@@H]2O[P@](=O)(OCOC(=O)OC(C)C)OC[C@H]2O[C@@H](n3cnc4c(N)ncnc43)[C@H](F)[C@@H]2O1	Criterion not met
CC(C)(C)C(=O)OCS[P@]1(=O)OC[C@H]2O[C@@H](n3cnc4c(N)ncnc43)[C@H](F)[C@@H]2O[P@](=O)(SCOC(=O)C(C)(C)C)OC[C@H]2O[C@@H](n3cnc4c(N)ncnc43)[C@H](F)[C@@H]2O1	Criterion met

hey, is Ratio EC50 for this one >= 8? `CC(C)(C)C(=O)OCO[P@@]1(=O)OC[C@H]2O[C@@H](n3cnc4c(N)ncnc43)[C@H](F)[C@@H]2O[P@](=O)(OCOC(=O)C(C)(C)C)OC[C@H]2O[C@@H](n3cnc4c(N)ncnc43)[C@H](F)[C@@H]2O1`
Criterion met
